Data origin, for the record: patent EP4755886A1

Biological target: CYP450 enzyme 3A4 (Homo sapiens, UniProt P08684)
Construct: Liver microsomes (purchased from BIOIVT, Cat. No.: X008070); tissue BIOIVT X008070; host or cells: human liver microsomes
Sequence (P08684 whole entry): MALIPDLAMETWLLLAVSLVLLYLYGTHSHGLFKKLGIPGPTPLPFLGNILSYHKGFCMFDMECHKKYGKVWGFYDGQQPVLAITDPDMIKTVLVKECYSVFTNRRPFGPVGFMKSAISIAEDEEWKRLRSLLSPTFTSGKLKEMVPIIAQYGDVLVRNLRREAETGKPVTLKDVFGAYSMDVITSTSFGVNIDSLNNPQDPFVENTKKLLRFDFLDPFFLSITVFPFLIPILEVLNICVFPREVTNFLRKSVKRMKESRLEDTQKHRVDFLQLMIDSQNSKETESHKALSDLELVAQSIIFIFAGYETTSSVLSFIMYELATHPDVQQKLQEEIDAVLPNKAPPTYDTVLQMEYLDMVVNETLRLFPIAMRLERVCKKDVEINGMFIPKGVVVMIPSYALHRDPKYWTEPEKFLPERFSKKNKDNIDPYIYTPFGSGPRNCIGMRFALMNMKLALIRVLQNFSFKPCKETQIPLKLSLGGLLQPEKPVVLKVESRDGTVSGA
Assay: CYP inhibition test in human liver microsomes
Assay type: in vitro ADME
Settings: human liver microsomes 0.1 mg/mL, substrate midazolam 3 µM; read-out: IC50 3A4-Midazolam
experimentalReadout: IC50

INSERT INTO assay_data (molecule, experimentalreadout, experimentalvalue) VALUES
  ('CN(C(=O)c1cc2c3c(c(N)nc2cc1Cl)COC3)[C@@H]1COc2cc(C#Cc3cnn(C)c3)ccc21 [Compound 40A]', 'IC50', '> 30 µM'),
  ('Cc1nn(C)cc1C#Cc1ccc2c(c1)OC[C@H]2N(C)C(=O)c1cc2c3c(c(N)nc2cc1Cl)COC3 [Compound 50A]', 'IC50', '> 30 µM'),
  ('Cn1ncc(-c2ccc3c(=O)[nH]nc(CN)c3c2)c1-c1c(F)c(Cl)cc(OC2CC2)c1C#N (atropisomer, axis not shown) [Reference Example 6, reference compound]', 'IC50', '2.13 µM'),
  ('CN(C(=O)c1cc2c(cc1F)nc(N)c1cnn(C)c12)[C@@H]1COc2cc(C#Cc3cnn(C)c3)ccc21', 'IC50', '> 30 µM'),
  ('CN(C(=O)c1cc2c3c(c(N)nc2cc1Cl)COC3)[C@@H]1COc2cc(C#Cc3cnn(C4CC4)c3)ccc21 [Compound 43A]', 'IC50', '> 30 µM');

---

Some molecules, each annotated with its measured log10 AUC(0-t).
Experiment: PK experiment in rats
Type: in vivo
Settings: rat; SD male rats, PO 10 mg/kg, vehicle 0.5% MC/0.2% Tween 80, plasma
experimentalReadout: log10 AUC(0-t) (log10 of the value in ng·h/mL)

INSERT INTO measurements (molecule, experimentalvalue) VALUES
  ('C#Cc1ccc2c(c1)OC[C@H]2N(C)C(=O)c1cc2c3c(c(N)nc2cc1Cl)COC3 [Reference Example 5, reference compound]', 3.47),
  ('CN(C(=O)c1cc2c(cc1F)nc(N)c1cnn(C)c12)[C@@H]1COc2cc(C#Cc3cnn(C)c3)ccc21', 4.19),
  ('CN(C(=O)c1cc2c3c(c(N)nc2cc1Cl)COC3)[C@@H]1COc2cc(C#Cc3cnn(C4CC4)c3)ccc21 [Compound 43A]', 3.98),
  ('CN(C(=O)c1cc2c3c(c(N)nc2cc1F)COC3)[C@@H]1COc2cc(C#Cc3cnn(C4CC4)c3)ccc21 [Compound 16A]', 4.14),
  ('Nc1nc2cnc(C(=O)N3CCOC[C@@H]3c3ccc(C(F)(F)F)cc3)cc2c2c1COC2 [Reference Example 7, reference compound]', 2.93),
  ('Cn1ncc(-c2ccc3c(=O)[nH]nc(CN)c3c2)c1-c1c(F)c(Cl)cc(OC2CC2)c1C#N (atropisomer, axis not shown) [Reference Example 6, reference compound]', 2.00),
  ('C#Cc1ccc2c(c1)OCC2N(C)C(=O)c1ccc2nc(N)c3cnn(C)c3c2c1 (stereo not shown) [Reference Example 2]', 2.89);

---

Test system: wild-type HCT-116 cells
Assay: Cell proliferation (MTS), wild-type HCT-116
Assay type: cell-based
Details: Homo sapiens, 240 h; wild-type HCT-116, 10 days with compound, MTS reading; read-out: IC50 HCT116 WT
Some compounds, each annotated with its measured IC50.
experimentalReadout: IC50 (nM)

INSERT INTO results (compound, valueunit, experimentalvalue) VALUES
  ('Nc1nc2cnc(C(=O)N3CCOC[C@@H]3c3ccc(C(F)(F)F)cc3)cc2c2c1COC2 [Reference Example 7, reference compound]', 'nM', 2010),
  ('CN(C(=O)c1cc2c(cc1F)nc(N)c1cnn(C)c12)C1COc2cc(C#Cc3cnn(C4CC4)c3)ccc21 (stereo not shown)', 'nM', 650),
  ('Cc1cc2nc(N)c3cnn(C)c3c2cc1C(=O)N(C)C1COc2cc(C#Cc3cnn(C4CC4)c3)ccc21 (stereo not shown)', 'nM', 185),
  ('CN(C(=O)c1cc2c(cc1F)nc(N)c1cnn(C)c12)[C@@H]1COc2cc(C#Cc3cccnc3)ccc21 [Compound 48A]', 'nM', 141),
  ('CN(C(=O)c1cc2c(cc1F)nc(N)c1cnn(C)c12)C1COc2cc(C#Cc3cnccc3C(F)F)ccc21 (stereo not shown)', 'nM', 785),
  ('CN(C(=O)c1ccc2nc(N)c3c(c2c1)COC3)C1COc2cc(C#Cc3cnn(C)c3)ccc21 (racemic)', 'nM', 4310),
  ('Cc1ccncc1C#Cc1ccc2c(c1)OCC2N(C)C(=O)c1cc2c(cc1F)nc(N)c1cnn(C)c12 (stereo not shown)', 'nM', 736),
  ('CN(C(=O)c1cc2c3c(c(N)nc2cc1Cl)COC3)[C@@H]1COc2cc(C#Cc3cn(C)nc3Cl)ccc21 [Compound 68A]', 'nM', 312),
  ('Cc1ncccc1C#Cc1ccc2c(c1)OC[C@H]2N(C)C(=O)c1cc2c(cc1F)nc(N)c1cnn(C)c12 [Compound 45A]', 'nM', 213),
  ('[2H]C([2H])([2H])N(C(=O)c1cc2c3c(c(N)nc2cc1Cl)COC3)[C@@H]1COc2cc(C#Cc3cnn(C4CC4)c3)ccc21 [Compound 86A]', 'nM', 1080),
  ('CC(C)n1cc(C#Cc2ccc3c(c2)OCC3N(C)C(=O)c2cc3c(cc2F)nc(N)c2cnn(C)c23)cn1 (stereo not shown)', 'nM', 607),
  ('CN(C(=O)c1ccc2nc(N)c3cnn(C)c3c2c1)C1COc2cc(C#Cc3cnn(C4CC4)c3)ccc21 (stereo not shown)', 'nM', 1320),
  ('CN(C(=O)c1cc2c3c(c(N)nc2cc1Cl)COC3)[C@@H]1COc2cc(C#Cc3cnn(C4CCC4)c3)ccc21 [Compound 90A]', 'nM', 1180);

---

Assay: PK experiment in mice
Settings: female, BALB/c, mouse, plasma, po, 10 mg/kg
AUC(0-t) strictly less than 10000 ng·h/mL = yes. Otherwise no.

INSERT INTO assay_data (compound, assignedclass) VALUES
  ('C#Cc1ccc2c(c1)OC[C@H]2N(C)C(=O)c1cc2c3c(c(N)nc2cc1Cl)COC3 [Reference Example 5, reference compound]', 'yes'),
  ('CN(C(=O)c1cc2c3c(c(N)nc2cc1Cl)COC3)[C@@H]1COc2cc(Br)ccc21 [Reference Example 4, reference compound]', 'yes'),
  ('CN(C(=O)c1ccc2nc(N)c3cnn(C)c3c2c1)C1COc2cc(C3CC3)ccc21 (centres unmarked) [Reference Example 3, reference compound]', 'yes'),
  ('CN(C(=O)c1cc2c3c(c(N)nc2cc1Cl)COC3)[C@@H]1COc2cc(C#Cc3cnn(C4CC4)c3)ccc21 [Compound 43A]', 'no'),
  ('Nc1nc2cnc(C(=O)N3CCOC[C@@H]3c3ccc(C(F)(F)F)cc3)cc2c2c1COC2 [Reference Example 7, reference compound]', 'no');

---

Experiment: in vivo
Conditions: mouse, po, 10 mg/kg
experimentalReadout: AUC(0-t) (ng·h/mL)

INSERT INTO measurements (molecule, experimentalvalue) VALUES
  ('[2H]C([2H])([2H])n1cc(C#Cc2ccc3c(c2)OC[C@H]3N(C)C(=O)c2cc3c(cc2F)nc(N)c2cnn(C)c23)cn1 [Compound 82A]', 14100),
  ('[2H]C([2H])([2H])N(C(=O)c1cc2c3c(c(N)nc2cc1Cl)COC3)[C@@H]1COc2cc(C#Cc3cnn(C4CC4)c3)ccc21 [Compound 86A]', 15300);

---

Assay: PK experiment in mice
Conditions: female, BALB/c, mouse, plasma, po, 10 mg/kg
Cmax strictly less than 2000 ng/mL = MET. Otherwise NOT MET.

INSERT INTO results (compound, assignedclass) VALUES
  ('CN(C(=O)c1cc2c3c(c(N)nc2cc1Cl)COC3)[C@@H]1COc2cc(Br)ccc21 [Reference Example 4, reference compound]', 'MET'),
  ('CN(C(=O)c1ccc2nc(N)c3cnn(C)c3c2c1)C1COc2cc(C3CC3)ccc21 (centres unmarked) [Reference Example 3, reference compound]', 'MET'),
  ('Nc1nc2cnc(C(=O)N3CCOC[C@@H]3c3ccc(C(F)(F)F)cc3)cc2c2c1COC2 [Reference Example 7, reference compound]', 'MET'),
  ('C#Cc1ccc2c(c1)OC[C@H]2N(C)C(=O)c1cc2c3c(c(N)nc2cc1Cl)COC3 [Reference Example 5, reference compound]', 'MET'),
  ('CN(C(=O)c1cc2c3c(c(N)nc2cc1Cl)COC3)[C@@H]1COc2cc(C#Cc3cnn(C4CC4)c3)ccc21 [Compound 43A]', 'NOT MET');

---

Some compounds, each annotated with its measured log10 Cmax.
Test: PK experiment in rats
Assay type: in vivo
Details: rat; SD male rats, PO 10 mg/kg, vehicle 0.5% MC/0.2% Tween 80, plasma
experimentalReadout: log10 Cmax (log10 of the value in ng/mL)

INSERT INTO results (compound, experimentalvalue) VALUES
  ('C#Cc1ccc2c(c1)OC[C@H]2N(C)C(=O)c1cc2c3c(c(N)nc2cc1Cl)COC3 [Reference Example 5, reference compound]', 2.74),
  ('CN(C(=O)c1cc2c(cc1F)nc(N)c1cnn(C)c12)[C@@H]1COc2cc(C#Cc3cnn(C)c3)ccc21 [Compound 5A]', 3.34),
  ('CN(C(=O)c1cc2c3c(c(N)nc2cc1F)COC3)[C@@H]1COc2cc(C#Cc3cnn(C4CC4)c3)ccc21 [Compound 16A]', 3.11),
  ('C#Cc1ccc2c(c1)OCC2N(C)C(=O)c1ccc2nc(N)c3cnn(C)c3c2c1 (stereo not shown) [Reference Example 2]', 2.12),
  ('CN(C(=O)c1cc2c3c(c(N)nc2cc1Cl)COC3)[C@@H]1COc2cc(C#Cc3cnn(C4CC4)c3)ccc21 [Compound 43A]', 3.09),
  ('Nc1nc2cnc(C(=O)N3CCOC[C@@H]3c3ccc(C(F)(F)F)cc3)cc2c2c1COC2 [Reference Example 7, reference compound]', 2.68),
  ('Cn1ncc(-c2ccc3c(=O)[nH]nc(CN)c3c2)c1-c1c(F)c(Cl)cc(OC2CC2)c1C#N (atropisomer, axis not shown) [Reference Example 6, reference compound]', 2.03);
